tested on: strain NF54 of P. falciparum; assay: 3H-hypoxanthine incorporation growth inhibition assay, P. falciparum NF54; type: cell-based; conditions: Plasmodium falciparum, NF54, read-out: NF54 IC50 (nM)
Where a name gives a salt, the structure may show the parent alone.
endpoint: IC50

Incoming: Name the recorded IC50 of the molecule listed here: Cc1cccc(NC(=O)c2cc(C#Cc3cc(C(=O)NC(=N)N)cc(C(F)(F)F)c3)ccc2C)n1 [Compound 2, hydrochloride]
Outgoing: < 25 nM

---

tested on: P. falciparum clinical field isolates; assay: Ex vivo drug susceptibility assay (schizont maturation, flow cytometry) on P. falciparum clinical field isolates; assay type: cell-based; conditions: Plasmodium falciparum, isolates from Timika (Papua, Indonesia), 35-56 hours
endpoint: IC50 (nM)
Please reply with the bare figure in nM and do not write the unit itself.

Incoming: Name the recorded IC50 of the molecule listed here: Cl.N=C(N)NC(=O)c1cc(C#Cc2ccc(C(F)(F)F)c(C(=O)Nc3ccccn3)c2)cc(C(F)(F)F)c1 [Compound 1b, hydrochloride]
Outgoing: 18.9
